Measured melting point by item

Some compounds with known melting point results, for comparison:
1. O=C(NCC[C@H]1OC[C@H](c2cccc3ccccc32)CO1)Oc1ccccc1 = 131 to 133 °C
2. CNC(=O)COC(=O)NCCC[C@H]1OC[C@H](c2cccc3cc(O)ccc32)CO1 = 140 to 148 °C
3. O=C(NCCC[C@H]1OC[C@H](c2cccc3ccccc32)CO1)Oc1ccccc1 = 125 to 127 °C
4. CNC(=O)COC(=O)NCC[C@H]1OC[C@H](c2cccc3cc(OC)ccc32)CO1 = 136 to 138 °C
5. COc1ccc2cccc([C@H]3CO[C@H](CCCNC(=O)Oc4ccccc4)OC3)c2c1 = 151 to 153 °C
6. CNC(=O)COC(=O)NCCC[C@H]1OC[C@H](c2cccc3ccccc32)CO1 = 154 °C
7. O=C(NCC[C@H]1OC[C@H](c2cccc3ccccc32)CO1)OCC(F)(F)F = 111 to 113 °C
8. COc1ccc2cccc([C@H]3CO[C@H](CCCNC(=O)OCC(F)(F)F)OC3)c2c1 = 93 to 96 °C
9. O=C(NCCC[C@H]1OC[C@H](c2cccc3cc(OCC4CC4)ccc32)CO1)OCC(F)(F)F = 105 to 107 °C
10. COc1ccc2c(cccc2[C@H]2CO[C@H](CCNC(=O)Oc3ccc(Cl)cc3)OC2)c1 = 129 to 131 °C

melting point reading for `O=C(NCCC[C@H]1OC[C@H](c2ccc3ccccc3c2)CO1)Oc1ccccc1` : 130 to 131 °C

melting point reading for `CNC(=O)COC(=O)NCCC[C@H]1OC[C@H](c2ccc(Cl)c3ccccc32)CO1` : 190 to 192 °C

melting point reading for `NC(=O)COC(=O)NCCC[C@H]1OC[C@H](c2cccc3cc(O)ccc32)CO1` : 166 to 170 °C

melting point reading for `COc1ccc2c(cccc2[C@H]2CO[C@H](CCCNC(=O)OCC(F)(F)F)OC2)c1` : 111 °C

melting point reading for `O=C(NCCC[C@H]1OC[C@H](c2ccc3ccccc3c2)CO1)OCC(F)(F)F` : 130 to 132 °C

melting point reading for `COc1ccc2c(cccc2[C@H]2CO[C@H](CCCNC(=O)Oc3ccccc3)OC2)c1` : 128 °C
